Would you kindly list Polyclonal antibody-binding activity (abs@450 nm) for each of these binders?
target: human PDGF R alpha antibody containing human κ light chain subgroup 3 (Vκ3) (manufactured by R&D Systems); test: ELISA; antibody immobilised (10 ug/mL), binding protein at 50 ug/mL, Anti-6-His detection, blank-subtracted
Record the value in abs@450 nm, omitting the unit from your answer.

Data request: Supply measured Polyclonal antibody-binding activity (abs@450 nm) of FpL_C3KX 3a (designed binder) ETPEEPAEEVTIRVNLIFADGQIQTAEFIGTFEEATARAYAYANLLAREYGGYTADLEDGGYTINIRFAGHHHHHH in your reply.
Data returned: 0.12

Data request: Supply measured Polyclonal antibody-binding activity (abs@450 nm) of FpL_C3KR (designed binder) ETPEEPREEVTIRVNLIFADGRIQTAEFRGTFEEATARAYAYANLLARENGEYTADLEDGGNTINIRFAGHHHHHH in your reply.
Data returned: 0.21

Data request: Supply measured Polyclonal antibody-binding activity (abs@450 nm) of FpL_C3KX 4h (designed binder) ETPEEPAEEVTIRVNLIFADGQIQTAEFIGTFEEATARAYAYANLLARDYGGYTADLEDGGYTINIRFAGHHHHHH in your reply.
Data returned: 0.56

Data request: Supply measured Polyclonal antibody-binding activity (abs@450 nm) of FpL_C4KR (designed binder) ETPEEPREEVTIRVNLIFADGRTQTAEFRGTFEEATAEAYRYADLLARVNGEYTADLEDGGYTINIRFAGHHHHHH in your reply.
Data returned: 0.59
